tgt: Shiga toxin 2 (Escherichia coli O157:H7) (UniProt P09385+P09386)
procedure.text: E. coli 0.157:H7 Shiga Toxin SOP - stx2 screening assay
Assay type: functional
Set-up: scale not given: direction of the effect not stated beside the values
recorded.conditions: 30 µM
Reported Percent Effect values are given for each entry in this list.

Please review the following examples before continuing.
Cc1nc(C2CCCN2CCCS(=O)(=O)N(C)C)no1 (stereo unspecified)	-7.71%
O=C(NC1CCCC1)NC1CCC(C(=O)N2CCSCC2)CC1 (stereo unspecified)	-37.4%
Cc1cc(CN2CCCC2c2noc(C3CC3)n2)c2ccccc2n1 (stereo unspecified)	9.51%
CC(NC(=O)NCCn1ccnc1)c1ccc2c(c1)NC(=O)CO2 (stereo unspecified)	5.67%
O=C(c1cscn1)N1C[C@H]2CCCC(OCc3cccnc3)[C@H]2C1 (stereo partly specified)	-13.5%

Would you kindly share the measured Percent Effect for Cn1ncc(NCc2cc(F)cc(F)c2)c(Cl)c1=O ?
-23.1%

Any idea what its Percent Effect is? The compound is NC(=O)C1CCN(C(=O)NCc2ccccc2Cn2cncn2)CC1
1.76%

I am curious: what Percent Effect value has been reported for CN(Cc1ccsc1)C(=O)c1cc2c([nH]c1=O)CCCC2=O ?
12.2%

// returns reported Percent Effect for input CNC(=O)COc1ccccc1CNC1CCc2ncnn2C1 (stereo unspecified)
-29.9%

# query: Percent Effect of entry COCCO[C@@H]1CCN(C(=O)c2ccc(C)o2)[C@@H]1Cc1cnn(C)c1
2.85%

Data request, read-out Percent Effect, for O=C(c1ccco1)N1CC[C@H]2[C@H]1CCN2CC1CCOCC1
-28%

* * *

Percent Effect by entry:
tgt: Aspartate--tRNA(Asp/Asn) ligase (Mycobacterium tuberculosis (strain ATCC 25618 / H37Rv))
procedure.text: Assay for Asp RNA synthetase-1 from Mycobacterium tuberculosis
Format: functional
Set-up: scale not given: direction of the effect not stated beside the values
recorded.conditions: 30 µM
Give just the numeric value; % need not be written.

I would be grateful if you could share the reported Percent Effect for COCCOc1ccc(NC(=O)C2CCCN(C(N)=O)C2)cn1 (stereo unspecified) .
-2.23

Value lookup for Percent Effect; key = Cc1ccc(-c2ncc(C(=O)NCCS(N)(=O)=O)s2)c(C)c1
1.7

* * *

tgt: Shiga toxin 2 (Escherichia coli O157:H7) (UniProt P09385+P09386)
procedure.text: E. coli 0.157:H7 Shiga Toxin SOP - stx2 screening assay
Assay type: functional
Set-up: scale not given: direction of the effect not stated beside the values
recorded.conditions: 30 µM
Reported Percent Effect values for a set of compounds
Just the number please, in %, no unit attached.

Please review the entries below; each comes with its answer.
CC(C)n1[nH]c(=O)c2c1NC(=O)CC2c1ccc2ncccc2c1 (configuration not stated)	-15.3
Cn1cc(-c2cnc(N3CCOCC3)nc2)cc1C(=O)NCCO	-9.13
CN1CC(=O)N(c2cccc(F)c2)CC12CCNC2 (configuration not stated)	-4.44

Tell me the measured Percent Effect of CSCCCNC(=O)Nc1cccc(-c2nccn2C)c1 , please.
-93.1

Give its Percent Effect value. Item: Cc1nc(NCc2cccnc2)c2c(n1)c(C)nn2C
-31.1

Entry C=C(C)C(=O)N1CCC(C(=O)c2cc(C)cnc2N)CC1 : reported Percent Effect = ?
-12

Which Percent Effect is listed for Cc1ccccc1CSc1nc(N)cc(N2C[C@H](O)[C@@H](N(C)C)C2)n1 ?
14.8

Look up Percent Effect: NC(=O)CSCC(=O)N1CCc2cc(Cl)cc(Cl)c2C1
-44.7

What does the data say about its Percent Effect? Entry: CCOc1ccc(CNCCCn2ccnc2)cc1Br
-77.4

Could you tell me which Percent Effect is on file for O=C(Cc1ccccn1)N1CCN2C[C@H](Oc3cccc(F)c3)C[C@H]2C1 ?
-10.5

# query: Percent Effect of entry CSc1ccc(S(=O)(=O)N2CCCCC2CCNC(C)=O)cc1 (configuration not stated)
-4.85

Name the reported Percent Effect value associated with the compound CCCc1noc(CN2CCCC2c2ccsc2)n1 (configuration not stated)
0.761

* * *

tgt: Aspartate--tRNA(Asp/Asn) ligase (Mycobacterium tuberculosis (strain ATCC 25618 / H37Rv)) (UniProt P9WFW3)
Sequence (P9WFW3 whole entry): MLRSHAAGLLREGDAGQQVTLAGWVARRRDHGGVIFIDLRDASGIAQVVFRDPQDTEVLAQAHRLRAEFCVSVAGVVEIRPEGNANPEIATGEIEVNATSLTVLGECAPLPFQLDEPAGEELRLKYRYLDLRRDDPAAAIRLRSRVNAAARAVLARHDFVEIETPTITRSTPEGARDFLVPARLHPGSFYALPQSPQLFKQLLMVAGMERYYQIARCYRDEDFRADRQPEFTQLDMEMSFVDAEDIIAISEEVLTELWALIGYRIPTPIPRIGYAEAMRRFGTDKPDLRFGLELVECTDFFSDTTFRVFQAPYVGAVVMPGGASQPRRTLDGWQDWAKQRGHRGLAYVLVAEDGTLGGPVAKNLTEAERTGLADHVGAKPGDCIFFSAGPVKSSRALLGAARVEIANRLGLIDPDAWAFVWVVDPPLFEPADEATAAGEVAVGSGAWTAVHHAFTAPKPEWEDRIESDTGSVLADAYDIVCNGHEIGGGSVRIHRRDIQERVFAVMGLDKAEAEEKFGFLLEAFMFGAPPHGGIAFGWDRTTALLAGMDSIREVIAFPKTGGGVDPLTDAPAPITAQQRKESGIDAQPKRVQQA
procedure.text: Assay for Asp RNA synthetase-1 from Mycobacterium tuberculosis
Format: functional
Set-up: scale not given: direction of the effect not stated beside the values
recorded.conditions: 30 µM
Below, each entry is listed with its recorded Percent Effect.
Please respond with the number in % and leave the unit unwritten.

CN(Cc1ccncc1)C(=O)Nc1cnn(CC2CCCO2)c1 (stereo unspecified)	2.49
CN(C)C(=O)[C@@H]1CCO[C@@H]2CCN(Cc3ccc4c(c3)OCO4)C[C@@H]21	-0.534
COc1ccc(CN2C[C@H]3CC[C@](O)(c4ccc(C)cn4)[C@H]3C2)c(F)c1	2.93
CCOc1ncccc1NC(=O)N1CCCCCC1	7.43
O=C(Cn1cccnc1=O)NC(Cc1cccs1)c1ccccn1 (stereo unspecified)	-0.372

# query: Percent Effect of entry CC(C)(C)n1ncc2c1CCCC2NCc1cccc2c1OCO2 (stereo unspecified)
-0.568

// query Percent Effect value for entry CCOc1ccc(Cl)cc1CNCCCn1ccnc1
0.842

What does the data say about its Percent Effect? Entry: Cc1nonc1C(=O)N1CCCC(c2ncncc2-c2ccncc2)C1 (stereo unspecified)
2.57

Could you share which Percent Effect value was measured for O=C1CC[C@@H]2[C@@H](CCN2Cc2ccncc2)N1c1ccccc1 ?
0.204

Looking for the measured Percent Effect of O=C1COc2ccc(C(=O)NS(=O)(=O)c3ccc(F)cc3F)cc2N1 , can you help?
0.0843

Can you look up the measured Percent Effect of Cc1cc(C[C@@H]2CCC[C@H]2NCc2cc(C)c(O)c(C)c2)on1 for me?
2.31

* * *

tgt: Shiga toxin 2 (Escherichia coli O157:H7) (UniProt P09385+P09386)
procedure.text: E. coli 0.157:H7 Shiga Toxin SOP - stx2 screening assay
Assay type: functional
Design: scale not given: direction of the effect not stated beside the values
recorded.conditions: 30 µM
readout.label: Percent Effect (%)
# output: bare number, implied unit %

CCN1CCCC(CNC(=O)C2(c3cccc(Cl)c3)CC2)C1 (stereo unspecified)	-31.2

Fill blank: measured Percent Effect of the compound CC(C(=O)NCCOc1ccc2c(c1)OCO2)n1cncn1 (stereo unspecified) is ____.
-4.93

Which Percent Effect is listed for c1cnnc(N2CCCC(NCc3ccc(-n4ccnc4)cc3)C2)c1 (stereo unspecified) ?
10.2

Query (compound): CCCN1CCC(NC(=O)NCCc2nc(CC)c(C)s2)CC1 ; field requested: Percent Effect
19.2

// returns reported Percent Effect for input CC1CCN(c2ncc3c(n2)CN(c2ccccc2)C3=O)CC1
-36.5

* * *

tgt: Aspartate--tRNA(Asp/Asn) ligase (Mycobacterium tuberculosis (strain ATCC 25618 / H37Rv)) (UniProt P9WFW3)
procedure.text: Assay for Asp RNA synthetase-1 from Mycobacterium tuberculosis
Type: functional
Design: scale not given: direction of the effect not stated beside the values
recorded.conditions: 30 µM
readout.label: Percent Effect

Below are worked cases with known answers.
Cc1nc2ccccn2c1CN(Cc1cccnc1)CC1CCCO1 (centres undefined)	8.51%
N#Cc1cn(C2CC2)c(=O)n(CC(O)c2ccc(OC(F)F)cc2)c1=O (centres undefined)	1.23%
O=C(NCc1ccccn1)[C@H]1COC[C@H]2CN(Cc3ccoc3)C[C@H]21	-0.779%
Fc1cccnc1OC[C@@]12CCO[C@@H]1CCN(CC1CCOCC1)C2	0.353%
CCCC(=O)N1CCC(O)(Cn2c(CC)nc3ccccc3c2=O)CC1	0.164%
FC1(F)CCN(Cc2cccnc2)CC12CCN(c1ccccn1)C2 (centres undefined)	1.91%

Any idea what Percent Effect was measured for NS(=O)(=O)c1ccc(NC(=O)CSc2ccc3c(c2)CCC3)cc1 ?
3.87%

Can you share its Percent Effect? I mean this compound: Cc1ccc(C(=O)N2CC[C@@H]3[C@H]2CCC(=O)N3c2ccccc2)o1
-6.1%

Bench note: what Percent Effect did O=C(CCc1ccccc1)C1CCCN(C(=O)c2ncc(F)cc2F)C1 (centres undefined) show?
7.65%

Given the entry c1ccc(Cn2ccnc2CN2CCCC2c2noc(C3CC3)n2)cc1 (centres undefined) , report its measured Percent Effect.
6.6%

Could you tell me which Percent Effect is on file for Cc1cc(CN(C)C(=O)c2ccc(C(F)(F)F)nc2)no1 ?
-0.926%

Name the reported Percent Effect value associated with the compound COCc1nc(N(C)C)ncc1C(=O)Nc1ccn(C)n1
-1.07%

Fill in the blank: the reported Percent Effect of COCCN1C(=O)C[C@H]2[C@H]1CCN2Cc1cccc(C#N)c1 is ____.
-5.22%

* * *

Test system: Trypanosoma cruzi
procedure.text: Trypanosoma cruzi phosphomannomutase and mannose-1-phosphate guanylyltransferase assay
Type: functional
Set-up: scale not given: direction of the effect not stated beside the values
recorded.conditions: 10 µM
Collected Percent Effect values appear next to each entry.
Give your result in % as a bare value.

Worked examples follow.
c1cncc(OC[C@@H]2CC[C@H]3[C@H](CCN3Cc3cccs3)O2)c1	-2.56
CN1CCC2(CC1)C(=O)N(CC1CC1)c1ccccc12	-1.69
CNC(=O)[C@@]12CCCN(c3ncccn3)[C@@H]1CN(C)C2	-6.21
Fc1cnc(N2CCO[C@H]3CN(CC4CCC4)C[C@H]32)nc1	1.93
c1ccc(OC[C@H]2CCC[C@]23CN(Cc2nccs2)CCO3)nc1	-2.36

Then there is this compound:
Dear colleague, I am looking for the recorded Percent Effect of the following compound: O=C([C@H]1C[C@H]2OCC[C@H]2N(Cc2cccnc2)C1)N1CCCO1
-0.489

Data provenance is ChEMBL document CHEMBL3988442.
